# credit: patent US4956363A

Test system: male NMRI mice
Assay: Toxicity, Irwin's test
Format: in vivo
Conditions: mice, i.p.; death of two animals out of three within 48 hours
REPORTED_ENDPOINT: Lethal dose

Ask | Tell me the measured Lethal dose of "CCCc1nc(N2CCOCC2)nc(N(C)C(=O)c2ccc(C)cc2)n1" , please.
Reply | 1174 mg/kg

Ask | Tell me the measured Lethal dose of "CCCc1nc(NCCOC(=O)Cc2ccccc2)nc(N2CCOCC2)n1" , please.
Reply | 1157 mg/kg

###

System: learning of the avoidance reflex
Assay: Multiple-trial passive avoidance: learning
Type: in vivo, rats (male Sprague-Dawley)
Conditions: i.p. at the dose (mg/kg) of the line in Table V, 30 min before test; criterion 180 seconds on the mat
List of Learning, average number of trials (group 2) values.

1. CCCc1nc(NC)nc(N2CCOCC2)n1 | 2.00

Ask | # value lookup — system learning of the avoidance reflex, readout Learning, average number of trials (group 2), item "CCCc1nc(NN(C)C)nc(N2CCOCC2)n1"
Reply | 1.53

Ask | # value lookup — system learning of the avoidance reflex, readout Learning, average number of trials (group 2), item "CCCc1nc(NCCO)nc(N2CCOCC2)n1"
Reply | 1.53

###

Tested on: male NMRI mice
Assay: Toxicity, Irwin's test
Format: in vivo
Details: mice, i.p.; death of two animals out of three within 48 hours
Please use the following Lethal dose ranges when assigning a class: low (below 800 mg/kg), medium (800 mg/kg to below 1000 mg/kg), high (1000 mg/kg or more)

Would you please look over these solved cases?
1. CCCc1nc(NC(=O)c2ccc(OC)cc2)nc(N2CCOCC2)n1 | low
2. CCCc1nc(N2CCOCC2)nc(N(C)C(C)=O)n1 | medium
3. CCCc1nc(NC(=O)c2ccc(C)c(C)c2)nc(N2CCOCC2)n1 | high
4. CCCc1nc(NC(=O)c2ccc(C)cc2)nc(N2CCOCC2)n1 | high
5. CCCc1nc(N2CCOCC2)nc(N(C)C(=O)c2ccc(OC)c(OC)c2)n1 | low
6. CCCc1nc(NC[C@@H](C)O)nc(N2CCOCC2)n1 | medium
7. CCCc1nc(NC(C)(C)CO)nc(N2CCOCC2)n1 | medium

Then there is this molecule:
Ask | GET /class?item= CCCc1nc(NC(CO)C(O)c2ccccc2)nc(N2CCOCC2)n1 (stereo not shown)
Reply | high

###

System: learning of the avoidance reflex
Assay: Multiple-trial passive avoidance: learning
Assay type: in vivo, rats (male Sprague-Dawley)
Conditions: i.p. at the dose (mg/kg) of the line in Table V, 30 min before test; criterion 180 seconds on the mat
REPORTED_ENDPOINT: Learning, average number of trials (group 2)
Output: the number by itself.

Sample answers from the record:
1. CCCc1nc(NC(=O)N(C)C)nc(N2CCOCC2)n1 [Compound 41] | 1.33
2. CCCc1nc(NC(CC)CO)nc(N2CCOCC2)n1 (centres unmarked) | 2.57
3. CCCc1nc(NCCOC)nc(N2CCOCC2)n1 [Compound 10] | 2.07

Ask | # value lookup — system learning of the avoidance reflex, readout Learning, average number of trials (group 2), item "CCCc1nc(N2CCOCC2)nc(N(C)C(C)=O)n1"
Reply | 2.07

Ask | # value lookup — system learning of the avoidance reflex, readout Learning, average number of trials (group 2), item "CCCc1nc(N(C)CCO)nc(N2CCOCC2)n1"
Reply | 2.0

###

Test system: male NMRI mice
Test: Toxicity, Irwin's test
Assay type: in vivo
Conditions: mice, i.p.; death of two animals out of three within 48 hours
List of Lethal dose values.
The answer is to be given in mg/kg; state only the numeric part.

Sample answers from the record:
1. CCCc1nc(N2CCOCC2)nc(N(C)C(=O)C(C)C)n1 | 922
2. CCCc1nc(NCC(C)O)nc(N2CCOCC2)n1 (centres unmarked) [Compound 5] | 563
3. CCCc1nc(NC(C)=O)nc(N2CCOCC2)n1 | 905
4. CCCc1nc(NC(CC)CO)nc(N2CCOCC2)n1 (centres unmarked) | 886
5. CCCc1nc(N2CCOCC2)nc(N(CCOC(C)=O)C(C)=O)n1 | 351

Ask | # value lookup — system male NMRI mice, readout Lethal dose, item CCCc1nc(NC(=O)c2ccc(Cl)cc2)nc(N2CCOCC2)n1 [Compound 29]
Reply | 398

Ask | # value lookup — system male NMRI mice, readout Lethal dose, item "CCCc1nc(NCCO)nc(N2CCOCC2)n1"
Reply | 802

Ask | # value lookup — system male NMRI mice, readout Lethal dose, item CCCc1nc(NC(CO)(CO)CO)nc(N2CCOCC2)n1 [Compound 12]
Reply | 982

Ask | # value lookup — system male NMRI mice, readout Lethal dose, item CCCc1nc(NC(C)(CO)CO)nc(N2CCOCC2)n1 [Compound 13]
Reply | 934

Ask | # value lookup — system male NMRI mice, readout Lethal dose, item CCCc1nc(NC[C@H](C)O)nc(N2CCOCC2)n1 [Compound 16]
Reply | 844

###

Tested on: male NMRI mice
Experiment: Toxicity, Irwin's test
Type: in vivo
Details: mice, i.p.; death of two animals out of three within 48 hours
Procedure: Progressive doses of the compound to be tested are administered intraperitoneally to groups of three mice until the lethal dose is reached (dose which causes the death of two animals out of three within 48 hours).
REPORTED_ENDPOINT: Lethal dose (mg/kg)
The answer is to be given in mg/kg; state only the numeric part.

Sample answers from the record:
1) CCCc1nc(NCCCCO)nc(N2CCOCC2)n1 [Compound 4] | 886
2) CCCc1nc(N2CCOCC2)nc(N(C)C(=O)c2ccc(OC)cc2)n1 [Compound 32] | 1222
3) CCCc1nc(NC)nc(N2CCOCC2)n1 [Compound 45] | 821
4) CCCc1nc(NC(C)=O)nc(N2CCOCC2)n1 | 996
5) CCCc1nc(NN(C)C)nc(N2CCOCC2)n1 | 799

Ask | Tell me the measured Lethal dose of CCCc1nc(N2CCOCC2)nc(N(C)C(=O)c2ccc(Cl)cc2)n1 [Compound 30] , please.
Reply | 1125

Ask | Tell me the measured Lethal dose of "CCCc1nc(N2CCOCC2)nc(N(C)C(C)=O)n1" , please.
Reply | 947

Ask | Tell me the measured Lethal dose of "CCCc1nc(NCCOC(C)=O)nc(N2CCOCC2)n1" , please.
Reply | 928

Ask | Tell me the measured Lethal dose of "CCCc1nc(N(C)CCO)nc(N2CCOCC2)n1" , please.
Reply | 844

###

List of Learning, average number of trials (group 2) values.
System: learning of the avoidance reflex
Assay: Multiple-trial passive avoidance: learning
Format: in vivo, rats (male Sprague-Dawley)
Conditions: i.p. at the dose (mg/kg) of the line in Table V, 30 min before test; criterion 180 seconds on the mat
Output: the number by itself.

Sample answers from the record:
1) CCCc1nc(NC(=O)c2ccccc2)nc(N2CCOCC2)n1.Cl | 1.0
2) CCCc1nc(NCCOC(C)=O)nc(N2CCOCC2)n1 | 1.3
3) CCCc1nc(N)nc(N2CCOCC2)n1 | 1.13
4) CNC(=O)Oc1ccc2c(c1)[C@]1(C)CCN(C)[C@@H]1N2C [physostigmine, reference compound] | 2.30
5) CCCc1nc(N2CCOCC2)nc(N(C)C(=O)c2ccccc2)n1.Cl | 1.13

Ask | Tell me the measured Learning, average number of trials (group 2) of "CCCc1nc(NC(C)=O)nc(N2CCOCC2)n1" , please.
Reply | 1.53

###

List of Lethal dose values.
Tested on: male NMRI mice
Test: Toxicity, Irwin's test
Assay type: in vivo
Conditions: mice, i.p.; death of two animals out of three within 48 hours
Description: Progressive doses of the compound to be tested are administered intraperitoneally to groups of three mice until the lethal dose is reached (dose which causes the death of two animals out of three within 48 hours).
The answer is to be given in mg/kg; state only the numeric part.

Ask | # value lookup — system male NMRI mice, readout Lethal dose, item "CCCc1nc(NC(=O)N(C)C)nc(N2CCOCC2)n1"
Reply | 294

Ask | # value lookup — system male NMRI mice, readout Lethal dose, item CCCc1nc(NCC(O)CO)nc(N2CCOCC2)n1 (stereo not shown)
Reply | 892

Ask | # value lookup — system male NMRI mice, readout Lethal dose, item "CCCc1nc(NCCOC)nc(N2CCOCC2)n1"
Reply | 844

###

System: male NMRI mice
Assay: Toxicity, Irwin's test
Assay type: in vivo
Settings: mice, i.p.; death of two animals out of three within 48 hours
Experimental: Progressive doses of the compound to be tested are administered intraperitoneally to groups of three mice until the lethal dose is reached (dose which causes the death of two animals out of three within 48 hours).
List of Lethal dose values.

1) CCCc1nc(NC(=O)Cc2ccccc2)nc(N2CCOCC2)n1 [Compound 23] | > 1024 mg/kg
2) CCCc1nc(NCCOC(=O)C(C)C)nc(N2CCOCC2)n1 [Compound 38] | > 1012 mg/kg
3) CCCc1nc(NC(=O)Oc2ccccc2)nc(N2CCOCC2)n1 [Compound 28] | > 1030 mg/kg

// next entry
Ask | # value lookup — system male NMRI mice, readout Lethal dose, item CCCc1nc(N2CCOCC2)nc(N(CCO)Cc2ccccc2)n1 [Compound 14]
Reply | > 1073 mg/kg
